# EXPERIMENTAL_SYSTEM: BRAF^V600E (Homo sapiens (Human), UniProt P15056, V600E)
# Sequence (P15056 whole entry V600E): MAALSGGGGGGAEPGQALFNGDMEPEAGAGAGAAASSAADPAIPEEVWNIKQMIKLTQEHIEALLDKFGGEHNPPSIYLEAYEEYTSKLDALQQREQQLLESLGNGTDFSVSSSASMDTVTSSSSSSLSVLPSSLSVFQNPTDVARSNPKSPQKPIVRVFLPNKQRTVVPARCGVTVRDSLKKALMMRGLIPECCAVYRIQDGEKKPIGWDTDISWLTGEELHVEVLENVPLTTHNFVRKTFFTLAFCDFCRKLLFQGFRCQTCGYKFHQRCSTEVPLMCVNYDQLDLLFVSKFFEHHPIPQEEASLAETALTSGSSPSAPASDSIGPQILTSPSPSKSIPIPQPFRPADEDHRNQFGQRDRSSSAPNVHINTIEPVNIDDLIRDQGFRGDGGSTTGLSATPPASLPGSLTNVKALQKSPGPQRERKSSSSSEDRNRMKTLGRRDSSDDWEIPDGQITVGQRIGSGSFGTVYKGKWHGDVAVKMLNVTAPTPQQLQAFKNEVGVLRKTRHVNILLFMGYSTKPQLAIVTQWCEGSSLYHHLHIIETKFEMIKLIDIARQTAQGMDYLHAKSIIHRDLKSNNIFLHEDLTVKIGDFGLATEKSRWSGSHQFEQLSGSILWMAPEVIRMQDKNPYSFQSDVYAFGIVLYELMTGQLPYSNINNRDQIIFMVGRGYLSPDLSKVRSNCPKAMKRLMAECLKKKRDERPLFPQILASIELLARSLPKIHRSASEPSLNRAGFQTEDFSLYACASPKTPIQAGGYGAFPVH
# PROCEDURE_DETAILS: BRAF^V600E kinase activity, Z′-LYTE enzymatic assay (SelectScreen, Invitrogen)
# PROTOCOL_CONDITIONS: 100 μM ATP; read-out: BRAF^V600E Inhibition IC50
pIC50: −log10 of the molar value.
MEASUREMENT_LABEL: pIC50

I = Cc1ccc(C(=O)Nc2ccc(CNCCN3CCNCC3)c(C(F)(F)F)c2)cc1C#Cc1cnc2cccnn12 [Cmp. 13]
II = C#Cc1cc(C(=O)Nc2ccc(CNCCN3CCNCC3)c(C(F)(F)F)c2)ccc1C [Cmp. 12]
Sort I and II by pIC50 descending and give the first. Provide the label of your selected option as the answer. I
